Kindly find below Ki information for Vascular endothelial growth factor receptor 2 (Homo sapiens) taken from the literature.
observationType: Ki

CCn1cc(Nc2ncc(Cl)c(N[C@@H]3[C@H](C(N)=O)[C@@H]4C=C[C@H]3C4)n2)cn1.CCn1cc(Nc2ncc(Cl)c(N[C@H]3[C@@H](C(N)=O)[C@H]4C=C[C@@H]3C4)n2)cn1 (mixture of isomers): < 100 nM
OC1CCN(c2ccc(-c3cnc4[nH]cc(-c5nncn5-c5cccc(F)c5F)c4c3)cn2)CC1: 200 to 1000 nM
O=C(Nc1cc(-n2cnc(Nc3ccccc3)n2)ccn1)C1CCCCC1: 100 to 1000 nM

###

Kindly find below Ki information for Vascular endothelial growth factor receptor 2 (Homo sapiens, UniProt P35968) taken from the literature.
observationType: Ki

NC(=O)[C@@H]1[C@H](Nc2nc(Nc3cnn(CCN4CCCCC4)c3)ncc2Br)[C@H]2C=C[C@@H]1C2.NC(=O)[C@H]1[C@@H](Nc2nc(Nc3cnn(CCN4CCCCC4)c3)ncc2Br)[C@@H]2C=C[C@H]1C2 (mixture of isomers): < 100 nM
CN(C)Cc1ccc(-c2cnc3[nH]cc(-c4oncc4-c4cccc(F)c4F)c3c2)cc1: 200 to 1000 nM
Cn1cc(Nc2ncc(Cl)c(Nc3ccccc3C3(O)CCOCC3)n2)cn1: 100 to 1000 nM
CCn1cc(Nc2ncc(C(F)(F)F)c(N[C@H]3[C@@H](C(N)=O)[C@@H]4C=C[C@H]3C4)n2)cn1: < 100 nM
Cn1cc(Nc2ncc(Cl)c(N[C@@H]3CC=CC[C@@H]3C(N)=O)n2)cn1.Cn1cc(Nc2ncc(Cl)c(N[C@H]3CC=CC[C@H]3C(N)=O)n2)cn1 (mixture of isomers): 100 to 1000 nM
COCCn1cc(Nc2ncc(Br)c(N[C@H]3[C@@H](C(N)=O)[C@@H]4C=C[C@H]3C4)n2)cn1: < 100 nM
CC(=O)N1[C@H](C)CN(c2cc(-n3cnc(Nc4ccc(N5CCN(S(=O)(=O)c6ccc(C)cc6)CC5)cc4)n3)ccn2)C[C@@H]1C: < 100 nM
CCn1cc(Nc2ncc(Br)c(N[C@@H]3[C@H](C(=O)NC)[C@H]4C=C[C@@H]3C4)n2)cn1.CCn1cc(Nc2ncc(Br)c(N[C@H]3[C@@H](C(=O)NC)[C@@H]4C=C[C@H]3C4)n2)cn1 (mixture of isomers): < 100 nM
Fc1cccc(-n2cnnc2-c2c[nH]c3ncc(-c4ccc(N5CCC[C@H]5CN5CCCC5)nc4)cc23)c1F: 1000 to 12500 nM
O=C(Nc1ccc(Cl)cc1)Nc1cccc2c1CCN(Cc1ccnc3ccccc13)C2: 70.1 nM
CCn1cc(Nc2nc(C)c(Cl)c(N[C@@H]3[C@H](C(N)=O)[C@H]4C=C[C@@H]3C4)n2)cn1.CCn1cc(Nc2nc(C)c(Cl)c(N[C@H]3[C@@H](C(N)=O)[C@@H]4C=C[C@H]3C4)n2)cn1 (mixture of isomers): 100 to 1000 nM
Cn1cc(Nc2ncc(Cl)c(Nc3ccccc3CO)n2)cn1: < 100 nM

###

Kindly find below Ki information for Vascular endothelial growth factor receptor 2 (Homo sapiens, UniProt P35968) taken from the literature.
observationType: Ki

NC(=O)[C@@H]1[C@H](Nc2nc(Nc3cnn(CC(=O)O)c3)ncc2Cl)[C@H]2C=C[C@@H]1C2: < 100 nM
CCn1cc(Nc2ncc(F)c(N[C@@H]3[C@H]4CC[C@H](C4)[C@@H]3C(N)=O)n2)cn1.CCn1cc(Nc2ncc(F)c(N[C@H]3[C@@H]4CC[C@@H](C4)[C@H]3C(N)=O)n2)cn1 (mixture of isomers): 100 to 1000 nM
Fc1cccc(-c2cnoc2-c2c[nH]c3ncc(Br)cc23)c1F: 200 to 1000 nM
Fc1cccc(-c2cnoc2-c2c[nH]c3ncc(-c4ccc(CN5CCOCC5)cc4)cc23)c1F: 200 to 1000 nM
Fc1cccc(-c2cnoc2-c2c[nH]c3ncc(C4CCNCC4)cc23)c1F: 1000 to 12500 nM
COC(=O)c1cnc2[nH]cc(-c3oncc3-c3cccc(F)c3F)c2c1: 200 to 1000 nM
CC(C)CCn1cc(Nc2ncc(Br)c(N[C@H]3[C@@H](C(N)=O)[C@@H]4C=C[C@H]3C4)n2)cn1: < 100 nM
c1ccc(-n2cnc(Nc3ccnc(NCCN4CCOCC4)c3)n2)cc1: > 1000 nM
